Test system: Staphylococcus aureus
method: Antibacterial activity against Staphylococcus aureus KCTC 209 after 24 hrs by broth microdilution method
Format: functional
condition: KCTC 209, 24 h
I'd appreciate it if you could supply MIC values for the items below.

Requested read-out: MIC. Entry: CC(C)C[C@@H](C(=O)O)N1C(=O)/C(=C/c2cc3cc(OCc4cccc(Cl)c4)ccc3nc2Cl)SC1=S
4 µg/mL

Likewise for CCn1cc(C(=O)O)c(=O)c2cc(F)c(N3CCNCC3)cc21 ?
2 µg/mL

What do you get for COc1c(N2CCNC(C)C2)c(F)cc2c(=O)c(C(=O)O)cn(C3CC3)c12 (stereo not drawn) ?
2 µg/mL

O=C(O)[C@H](Cc1ccccc1)N1C(=O)/C(=C/c2cc3cc(OCc4ccccc4F)ccc3nc2Cl)SC1=S , same question.
64 µg/mL

How about CCC(C)[C@@H](C(=O)O)N1C(=O)/C(=C/c2cc3cc(OCc4cccc(Cl)c4)ccc3nc2Cl)SC1=S (stereo partly drawn) ?
> 64 µg/mL

Same read-out for O=C(O)[C@H](Cc1ccccc1)N1C(=O)/C(=C/c2cc3cc(OCc4ccc(F)cc4)ccc3nc2Cl)SC1=S ?
32 µg/mL

Subsequent entry: CC(C)C[C@@H](C(=O)O)N1C(=O)/C(=C/c2cc3cc(OCc4ccc(Cl)cc4)ccc3nc2Cl)SC1=S
4 µg/mL

# repeat for O=C(O)[C@H](Cc1ccccc1)N1C(=O)/C(=C/c2cc3cc(OCc4cccc(Cl)c4)ccc3nc2Cl)SC1=S
64 µg/mL

====

Test system: Staphylococcus aureus
method: Antibacterial activity against Staphylococcus aureus RN4220 after 24 hrs by broth microdilution method
Type: functional
condition: RN4220, 24 h
readoutType: MIC (µg/mL)
Report the value in µg/mL with no unit label.

Find the measured MIC: item CC(C)C[C@@H](C(=O)O)N1C(=O)/C(=C/c2cc3cc(OCc4ccccc4Cl)ccc3nc2Cl)SC1=S , target or system Staphylococcus aureus.
1

Likewise for CC(C)C[C@@H](C(=O)O)N1C(=O)/C(=C/c2cc3cc(OCc4cccc(Cl)c4)ccc3nc2Cl)SC1=S ?
2

Input COc1c(N2C[C@@H]3CCCN[C@@H]3C2)c(F)cc2c(=O)c(C(=O)O)cn(C3CC3)c12
0.25

Request: CCC(C)[C@@H](C(=O)O)N1C(=O)/C(=C/c2cc3cc(OCc4ccc(F)cc4)ccc3nc2Cl)SC1=S (stereo partly drawn)
1

Follow-up entry: O=C(O)[C@H](Cc1ccccc1)N1C(=O)/C(=C/c2cc3cc(OCc4ccccc4Cl)ccc3nc2Cl)SC1=S
4

Next compound: O=C(O)[C@H](Cc1ccccc1)N1C(=O)/C(=C/c2cc3cc(OCc4cccc(F)c4)ccc3nc2Cl)SC1=S
4

One more compound: CCn1cc(C(=O)O)c(=O)c2cc(F)c(N3CCNCC3)cc21
2

Do the same for CC(C)C[C@@H](C(=O)O)N1C(=O)/C(=C/c2cc3cc(OCc4ccc(Cl)cc4)ccc3nc2Cl)SC1=S please
1

====

Kindly state MIC for each of the entries shown.
Test system: Staphylococcus aureus
method: Antibacterial activity against quinolone-resistant Staphylococcus aureus CCARM 3519 after 24 hrs by broth microdilution method
Type: functional
condition: CCARM 3519, 24 h
Number in µg/mL, nothing else.

Entry CCC(C)[C@@H](C(=O)O)N1C(=O)/C(=C/c2cc3cc(OCc4ccccc4F)ccc3nc2Cl)SC1=S (some centres undefined) , system Staphylococcus aureus: what MIC was measured?
2

Also need CCC(C)[C@@H](C(=O)O)N1C(=O)/C(=C/c2cc3cc(OCc4ccc(Cl)cc4)ccc3nc2Cl)SC1=S (some centres undefined) , thanks.
2

Now the compound CC(C)C[C@@H](C(=O)O)N1C(=O)/C(=C/c2cc3cc(OCc4ccc(F)cc4)ccc3nc2Cl)SC1=S
1
